- assay system: human S1P3 receptor (Homo sapiens (Human), UniProt Q99500)
- Sequence (Q99500 whole entry): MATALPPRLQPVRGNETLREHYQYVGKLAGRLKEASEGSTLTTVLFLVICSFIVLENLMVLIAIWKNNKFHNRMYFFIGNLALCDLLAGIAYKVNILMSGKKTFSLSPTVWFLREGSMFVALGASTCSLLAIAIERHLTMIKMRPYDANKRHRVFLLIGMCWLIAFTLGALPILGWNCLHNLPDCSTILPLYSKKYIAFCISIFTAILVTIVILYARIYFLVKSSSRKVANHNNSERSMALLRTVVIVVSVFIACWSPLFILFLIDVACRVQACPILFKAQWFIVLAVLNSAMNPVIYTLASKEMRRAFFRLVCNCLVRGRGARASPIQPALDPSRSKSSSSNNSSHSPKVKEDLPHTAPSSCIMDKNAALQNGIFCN
- protocol summary: Activation or block of activation of human S1P3 receptor, Ca+2 FLIPR assay
- Assay type: cell-based
- stated conditions: T24 cells stably expressing the human S1P3 receptor; FLIPR Ca+2 response; 0.61 nM to 10,000 nM; read-out: S1P3 IC50
Each entry below carries its recorded log10 IC50.
outcome measure: log10 IC50 (log10 of the value in nM)

- compound: "CC(C)c1c(C(=O)NCc2ccc(F)c(F)c2)c2ccc(OCCN(C)C)cc2n1Cc1ccccc1"
  assay system: "human S1P3 receptor (Homo sapiens (Human), UniProt Q99500)"
  log10 IC50: 2.38
- compound: "CC(C)COc1ccc2c(C(=O)NCc3cncc(F)c3)c(C(C)C)n(Cc3ccccn3)c2c1"
  assay system: "human S1P3 receptor (Homo sapiens (Human), UniProt Q99500)"
  log10 IC50: 1.46
- compound: "CC(C)c1c(C(=O)NCc2ccc(F)c(F)c2)c2ccc(CO)cc2n1Cc1ccccc1"
  assay system: "human S1P3 receptor (Homo sapiens (Human), UniProt Q99500)"
  log10 IC50: 3.30
- compound: "CC(C)Oc1ccc2c(C(=O)NCc3ccc(F)c(F)c3)c(C3=NCCO3)n(Cc3ccccn3)c2c1"
  assay system: "human S1P3 receptor (Homo sapiens (Human), UniProt Q99500)"
  log10 IC50: 3.59
- compound: "CCOC(=O)c1ccc2c(C(=O)NCc3cc(F)cc(F)c3)c(C(C)C)n(Cc3ccccn3)c2c1"
  assay system: "human S1P3 receptor (Homo sapiens (Human), UniProt Q99500)"
  log10 IC50: 1.38
- compound: "CC(C)c1c(C(=O)NCc2ccc(F)c(F)c2)c2ccc(/C=N/N(C)C)cc2n1Cc1ccccn1"
  assay system: "human S1P3 receptor (Homo sapiens (Human), UniProt Q99500)"
  log10 IC50: 1.97
- compound: "Cc1cc(Cn2c(C(C)C)c(C(=O)NCc3ccc(F)c(F)c3)c3ccc(O)cc32)no1"
  assay system: "human S1P3 receptor (Homo sapiens (Human), UniProt Q99500)"
  log10 IC50: 3.73
- compound: "CC(C)c1c(C(=O)NCc2ccc(F)c(F)c2)c2ccc(-c3nnco3)cc2n1Cc1ccccc1"
  assay system: "human S1P3 receptor (Homo sapiens (Human), UniProt Q99500)"
  log10 IC50: 1.77
- compound: "CC(C)c1c(C(=O)NCc2ccc(F)c(F)c2)c2ccc(C(=O)N(C)C)cc2n1Cc1ccccc1"
  assay system: "human S1P3 receptor (Homo sapiens (Human), UniProt Q99500)"
  log10 IC50: 2.29
- compound: "CCOC(=O)c1ccc2c(C(=O)NCc3ccc(F)cc3)c(C(C)C)n(Cc3ccccc3)c2c1"
  assay system: "human S1P3 receptor (Homo sapiens (Human), UniProt Q99500)"
  log10 IC50: 1.63
- compound: "CC(C)c1c(C(=O)NCc2ccc(F)c(F)c2)c2ccc(NC3CCC3)cc2n1Cc1ccccn1"
  assay system: "human S1P3 receptor (Homo sapiens (Human), UniProt Q99500)"
  log10 IC50: 1.83
- compound: "CC(C)c1c(C(=O)NCc2ccc(F)c(F)c2)c2ccc(OC3CCNC3)cc2n1Cc1ccccc1 (stereo not shown)"
  assay system: "human S1P3 receptor (Homo sapiens (Human), UniProt Q99500)"
  log10 IC50: 3.38
- compound: "CC(C)c1c(C(=O)NCc2ccc(F)c(F)c2)c2ccc(Oc3ncc(Br)s3)cc2n1Cc1ncco1"
  assay system: "human S1P3 receptor (Homo sapiens (Human), UniProt Q99500)"
  log10 IC50: 1.36
- compound: "CCCOc1ccc2c(C(=O)NCc3cccnc3)c(C(C)C)n(Cc3ccccn3)c2c1"
  assay system: "human S1P3 receptor (Homo sapiens (Human), UniProt Q99500)"
  log10 IC50: 3.08
- compound: "CC(C)c1c(C(=O)NCc2ccc(F)c(F)c2)c2ccc(NC3CCCC3)cc2n1Cc1ccccn1"
  assay system: "human S1P3 receptor (Homo sapiens (Human), UniProt Q99500)"
  log10 IC50: 2.18
- compound: "CC[C@H]1COC(c2ccc3c(C(=O)NCc4cc(F)cc(F)c4)c(C(C)C)n(Cc4ccccn4)c3c2)=N1"
  assay system: "human S1P3 receptor (Homo sapiens (Human), UniProt Q99500)"
  log10 IC50: 1.26
